# credit: the NIST ThermoML archive (doi:10.1016/j.jct.2015.05.014)

molecules and their reported activity coefficient
Experiment: activity coefficient (dimensionless); of the first substance listed, at infinite dilution; xn = mol fraction of the nth substance listed
Settings: 348.15 K; 100 kPa; Liquid; Chromatography; x1 = 0

>  <MOLECULE>
C1=CCCCC1 [cyclohexene] + CC(O)C(=O)[O-].CC[N+]1(C)CCCC1

>  <activity coefficient>
19.7

$$$$
>  <MOLECULE>
CC(C)=O [acetone] + CC(O)C(=O)[O-].CC[N+]1(C)CCCC1

>  <activity coefficient>
2.08

$$$$
>  <MOLECULE>
CC(C)CC(C)(C)C [2,2,4-trimethylpentane] + CC(O)C(=O)[O-].CC[N+]1(C)CCCC1

>  <activity coefficient>
187

$$$$
>  <MOLECULE>
C=CCCCCCCCC [1-decene] + CC(O)C(=O)[O-].CC[N+]1(C)CCCC1

>  <activity coefficient>
268

$$$$
>  <MOLECULE>
C=CCCCCC [1-heptene] + CC(O)C(=O)[O-].CC[N+]1(C)CCCC1

>  <activity coefficient>
71.9

$$$$

====

Assay: activity coefficient (dimensionless); of the first substance listed, at infinite dilution; xn = mol fraction of the nth substance listed
Conditions: 328.15 K; 100 kPa; Liquid; Chromatography; x1 = 0
Quick rule for you: activity coefficient at 10 or higher means y, lower means n.

>  <COMPOUND>
C1CCCCCC1 [cycloheptane] + CC(O)C(=O)[O-].CC[N+]1(C)CCCC1

>  <DISCRETE_LABEL>
y

$$$$
>  <COMPOUND>
CCCCCCCC [octane] + CC(O)C(=O)[O-].CC[N+]1(C)CCCC1

>  <DISCRETE_LABEL>
y

$$$$
>  <COMPOUND>
C1CCCCC1 [cyclohexane] + CC(O)C(=O)[O-].CC[N+]1(C)CCCC1

>  <DISCRETE_LABEL>
y

$$$$
>  <COMPOUND>
CCCCCC [hexane] + CC(O)C(=O)[O-].CC[N+]1(C)CCCC1

>  <DISCRETE_LABEL>
y

$$$$
>  <COMPOUND>
c1ccncc1 [pyridine] + CC(O)C(=O)[O-].CC[N+]1(C)CCCC1

>  <DISCRETE_LABEL>
n

$$$$
>  <COMPOUND>
CC(C)=O [acetone] + CC(O)C(=O)[O-].CC[N+]1(C)CCCC1

>  <DISCRETE_LABEL>
n

$$$$
>  <COMPOUND>
CCC[N+](=O)[O-] [1-nitropropane] + CC(O)C(=O)[O-].CC[N+]1(C)CCCC1

>  <DISCRETE_LABEL>
n

$$$$
>  <COMPOUND>
CCC(=O)OC [methyl propanoate] + CC(O)C(=O)[O-].CC[N+]1(C)CCCC1

>  <DISCRETE_LABEL>
n

$$$$
>  <COMPOUND>
CC#N [acetonitrile] + CC(O)C(=O)[O-].CC[N+]1(C)CCCC1

>  <DISCRETE_LABEL>
n

$$$$
>  <COMPOUND>
CC1CCCCC1 [methylcyclohexane] + CC(O)C(=O)[O-].CC[N+]1(C)CCCC1

>  <DISCRETE_LABEL>
y

$$$$
>  <COMPOUND>
CCOC(C)=O [ethyl acetate] + CC(O)C(=O)[O-].CC[N+]1(C)CCCC1

>  <DISCRETE_LABEL>
n

$$$$
>  <COMPOUND>
C#CCCCCCC [1-octyne] + CC(O)C(=O)[O-].CC[N+]1(C)CCCC1

>  <DISCRETE_LABEL>
y

$$$$
>  <COMPOUND>
CCCC(=O)OC [methyl butanoate] + CC(O)C(=O)[O-].CC[N+]1(C)CCCC1

>  <DISCRETE_LABEL>
n

$$$$
>  <COMPOUND>
CCCCC(C)=O [2-hexanone] + CC(O)C(=O)[O-].CC[N+]1(C)CCCC1

>  <DISCRETE_LABEL>
n

$$$$
>  <COMPOUND>
C=CCCCC [hex-1-ene] + CC(O)C(=O)[O-].CC[N+]1(C)CCCC1

>  <DISCRETE_LABEL>
y

$$$$
>  <COMPOUND>
c1ccccc1 [benzene] + CC(O)C(=O)[O-].CC[N+]1(C)CCCC1

>  <DISCRETE_LABEL>
n

$$$$
>  <COMPOUND>
CCc1ccccc1 [ethylbenzene] + CC(O)C(=O)[O-].CC[N+]1(C)CCCC1

>  <DISCRETE_LABEL>
n

$$$$
>  <COMPOUND>
COC(C)=O [methyl ethanoate] + CC(O)C(=O)[O-].CC[N+]1(C)CCCC1

>  <DISCRETE_LABEL>
n

$$$$
>  <COMPOUND>
CCCC(C)=O [pentan-2-one] + CC(O)C(=O)[O-].CC[N+]1(C)CCCC1

>  <DISCRETE_LABEL>
n

$$$$
>  <COMPOUND>
CCOCC [diethyl ether] + CC(O)C(=O)[O-].CC[N+]1(C)CCCC1

>  <DISCRETE_LABEL>
y

$$$$
>  <COMPOUND>
CCCCCCCCCC [decane] + CC(O)C(=O)[O-].CC[N+]1(C)CCCC1

>  <DISCRETE_LABEL>
y

$$$$
>  <COMPOUND>
Cc1ccccc1 [toluene] + CC(O)C(=O)[O-].CC[N+]1(C)CCCC1

>  <DISCRETE_LABEL>
n

$$$$
>  <COMPOUND>
COC(C)(C)C [2-methoxy-2-methylpropane] + CC(O)C(=O)[O-].CC[N+]1(C)CCCC1

>  <DISCRETE_LABEL>
y

$$$$
>  <COMPOUND>
c1ccsc1 [thiophene] + CC(O)C(=O)[O-].CC[N+]1(C)CCCC1

>  <DISCRETE_LABEL>
n

$$$$
>  <COMPOUND>
CC(C)CC(C)(C)C [2,2,4-trimethylpentane] + CC(O)C(=O)[O-].CC[N+]1(C)CCCC1

>  <DISCRETE_LABEL>
y

$$$$
>  <COMPOUND>
C1CCCCCCC1 [cyclooctane] + CC(O)C(=O)[O-].CC[N+]1(C)CCCC1

>  <DISCRETE_LABEL>
y

$$$$
